The measured values listed here are drawn from patent US12269800B2.

settings: 60 min, 5 µM
As shown below, each of these compounds has a reported Rat Plasma Prodrug (%) value.
Reply with just the number (in %).

Check out these entries, answers already filled in.
| compound | result_value |
| --- | --- |
| CCC(C)(CC)C(=O)OC1=C[C@@H]2N(C)CC[C@]2(c2ccc(OC)c(OC)c2)CC1 | 97.1 |
| COc1ccc([C@@]23CCC(OC(=O)CC(C)(C)C)=C[C@@H]2N(C)CC3)cc1OC | 16.5 |
| COc1ccc([C@@]23CCC(OC(=O)c4cccc(C)c4)=C[C@@H]2N(C)CC3)cc1OC | 0.1 |
| COc1ccc([C@@]23CCC(OC(=O)c4ccc(C(C)C)cc4)=C[C@@H]2N(C)CC3)cc1OC | 0.1 |

Which Rat Plasma Prodrug (%) value is on record for CCCC(CC)CC(=O)OC1=C[C@@H]2N(C)CC[C@]2(c2ccc(OC)c(OC)c2)CC1 (stereo partly drawn) ?
0.1

###

A collection of compounds and their measured Human Plasma Prodrug (%)
assay: Plasma Stability Assay of Example A3, human plasma; conditions: % of prodrug compound remaining, 37° C., 0.0 min
Give a bare numeral; the unit % is implied.

| compound | Human Plasma Prodrug (%) |
| --- | --- |
| C/C=C(\C)C(=O)OC1=C[C@@H]2N(C)CC[C@]2(c2ccc(OC)c(OC)c2)CC1 [Compound 313] | 100.0 |

What measured Human Plasma Prodrug (%) goes with COc1ccc([C@@]23CCC(OC(=O)c4cccc(C)c4C)=C[C@@H]2N(C)CC3)cc1OC [Compound 373] ?
100

Record request: Human Plasma Prodrug (%) value, item COc1ccc([C@@]23CCC(OC(=O)c4ccc(F)cc4)=C[C@@H]2N(C)CC3)cc1OC [Compound 353]
100

// returns reported Human Plasma Prodrug (%) for input COc1ccc([C@@]23CCC(OC(=O)c4cccc(N(C)C)c4)=C[C@@H]2N(C)CC3)cc1OC [Compound 307]
100.0

Returns the measured Human Plasma Prodrug (%) for the input compound. Input: C=C(C)C(=O)OC1=C[C@@H]2N(C)CC[C@]2(c2ccc(OC)c(OC)c2)CC1 [Compound 315]
100.0

Request the reported Human Plasma Prodrug (%) associated with COc1ccc([C@@]23CCC(OC(=O)C(c4ccccc4)c4ccccc4)=C[C@@H]2N(C)CC3)cc1OC [Compound 306]
100.0

Quick check: Human Plasma Prodrug (%) of COc1ccc([C@@]23CCC(OC(=O)c4ccc(C#N)cc4)=C[C@@H]2N(C)CC3)cc1OC [Compound 354] ?
100

Any idea what Human Plasma Prodrug (%) was measured for COc1ccc([C@@]23CCC(OC(=O)c4ccc(C(C)C)cc4)=C[C@@H]2N(C)CC3)cc1OC [Compound 371] ?
100

Fill blank: measured Human Plasma Prodrug (%) of the compound COc1ccc([C@@]23CCC(=O)C[C@@H]2N(C)CC3)cc1OC [Compound 001, mesembrine, reference compound] is ____.
100.0

Request the reported Human Plasma Prodrug (%) associated with COc1ccc([C@@]23CCC(OC(=O)c4cccc(C(C)(C)C)c4)=C[C@@H]2N(C)CC3)cc1OC [Compound 375]
100

Quick check: Human Plasma Prodrug (%) of COc1ccc([C@@]23CCC(OC(=O)C4CC4)=C[C@@H]2N(C)CC3)cc1OC [Compound 312] ?
100.0

Name the recorded Human Plasma Prodrug (%) for COc1ccc([C@@]23CCC(OC(=O)c4cccc(C)c4)=C[C@@H]2N(C)CC3)cc1OC [Compound 374] .
100

Endpoint output: Human Plasma Prodrug (%) of COc1ccc([C@@]23CCC(OC(=O)C(C)(C)C)=C[C@@H]2N(C)CC3)cc1OC [Compound 309] . Value?
100.0

Reported Human Plasma Prodrug (%), compound COc1ccc([C@@]23CCC(OC(=O)c4ccc(N(C)C)cc4)=C[C@@H]2N(C)CC3)cc1OC [Compound 355] : ____
100.0

Would you kindly share the measured Human Plasma Prodrug (%) for COc1ccc([C@@]23CCC(OC(=O)c4ccc(C(F)(F)F)cc4)=C[C@@H]2N(C)CC3)cc1OC [Compound 310] ?
100.0

May I ask what Human Plasma Prodrug (%) has been recorded for COc1ccc([C@@]23CCC(OC(=O)c4c(C)cccc4C)=C[C@@H]2N(C)CC3)cc1OC [Compound 372] ?
100
